Provenance of the data: paper PMC10079235

tested on: HCT-8/WT(PTX) cells; experiment: MTS cytotoxicity (drug tolerance) assay; conditions: human, 41 h
Structures can show the parent of a compound that is named as a salt.
Kindly supply the reported TC50 values for the records listed here.
Reply with just the number (in µM).

Prompt: Endpoint output: TC50 of O=C1c2c(O)ccc(O)c2C(=O)c2c(NCCNCCO)ccc(NCCNCCO)c21 [Mitoxantrone, Mitoxantrone 2HCl] . Value?
Completion: 4.23

Prompt: Endpoint output: TC50 of COc1cccc2c1C(=O)c1c(O)c3c(c(O)c1C2=O)C[C@@](O)(C(=O)CO)C[C@@H]3O[C@H]1C[C@H](N)[C@H](O)[C@H](C)O1 [Doxorubicin, Doxorubicin HCl] . Value?
Completion: 4.24

Prompt: Endpoint output: TC50 of COc1cccc2c1C(=O)c1c(O)c3c(c(O)c1C2=O)C[C@@](O)(C(C)=O)C[C@@H]3O[C@H]1C[C@H](N)[C@H](O)[C@H](C)O1 [Daunorubicin, Daunorubicin HCl] . Value?
Completion: 3.88

Prompt: Endpoint output: TC50 of CC(=O)O[C@H]1C(=O)[C@@]2(C)[C@H]([C@H](OC(=O)c3ccccc3)[C@]3(O)C[C@H](OC(=O)[C@H](O)[C@@H](NC(=O)c4ccccc4)c4ccccc4)C(C)=C1C3(C)C)[C@]1(OC(C)=O)CO[C@@H]1C[C@@H]2O . Value?
Completion: 16.03

----------
system: HCT-8/WT cells; assay: MTS cytotoxicity (drug tolerance) assay; details: WT cells, no drug selection; MTS assay
Where a name gives a salt, the structure may show the parent alone.
readout name: TC50 (µM)
Reply with just the number (in µM).

Prompt: Endpoint output: TC50 of COc1cccc2c1C(=O)c1c(O)c3c(c(O)c1C2=O)C[C@@](O)(C(=O)CO)C[C@@H]3O[C@H]1C[C@H](N)[C@H](O)[C@H](C)O1 [Doxorubicin, Doxorubicin HCl] . Value?
Completion: 4.03

Prompt: Endpoint output: TC50 of CC(=O)Oc1ccccc1C(=O)Nc1ncc([N+](=O)[O-])s1 [Nitazoxanide] . Value?
Completion: 26.75

Prompt: Endpoint output: TC50 of CC(=O)O[C@H]1C(=O)[C@@]2(C)[C@H]([C@H](OC(=O)c3ccccc3)[C@]3(O)C[C@H](OC(=O)[C@H](O)[C@@H](NC(=O)c4ccccc4)c4ccccc4)C(C)=C1C3(C)C)[C@]1(OC(C)=O)CO[C@@H]1C[C@@H]2O . Value?
Completion: 12.75

Prompt: Endpoint output: TC50 of CN(C)C(=O)C(CCN1CCC(O)(c2ccc(Cl)cc2)CC1)(c1ccccc1)c1ccccc1 [Loperamide, Loperamide HCl] . Value?
Completion: 15.96

Prompt: Endpoint output: TC50 of CC[C@]1(O)C[C@H]2CN(CCc3c([nH]c4ccccc34)[C@@](C(=O)OC)(c3cc4c(cc3OC)N(C=O)[C@H]3[C@@](O)(C(=O)OC)[C@H](OC(C)=O)[C@]5(CC)C=CCN6CC[C@]43[C@@H]65)C2)C1 [Vincristine, Vincristine sulphate] . Value?
Completion: 6.72

Prompt: Endpoint output: TC50 of COc1cccc2c1C(=O)c1c(O)c3c(c(O)c1C2=O)C[C@@](O)(C(C)=O)C[C@@H]3O[C@H]1C[C@H](N)[C@H](O)[C@H](C)O1 [Daunorubicin, Daunorubicin HCl] . Value?
Completion: 3.91

Prompt: Endpoint output: TC50 of O=C1c2c(O)ccc(O)c2C(=O)c2c(NCCNCCO)ccc(NCCNCCO)c21 [Mitoxantrone, Mitoxantrone 2HCl] . Value?
Completion: 4.31
